Every entry's value here was drawn from patent US5739163A.

tested on: agonist-induced platelet aggregation; test: Platelet Aggregation Assay; type: cell-based; conditions: human platelet-rich plasma, class symbols
experimentalEndpoint: IC50

Take a look at these entries with their results.
INSERT INTO assay_data (compound, experimentalendpoint, result) VALUES
  ('CCOC(=O)c1cc(/C=C/C(=O)c2cccc(CC(C)N)c2)ccc1OCC(=O)O (stereo not drawn)', 'IC50', '10 to 50 µM'),
  ('NCCOc1cccc(C(=O)/C=C/c2ccc(OCC(=O)O)cc2)c1 [Example 1]', 'IC50', '10 to 50 µM');

We now examine a further compound.
Q) Which value of IC50 has been reported for NCCOc1cccc(C(=O)/C=C/c2ccc(OCC(=O)O)cc2)c1 [Example 75a] in the records?
A) 51 to 100 µM

* * *

tested on: agonist-induced platelet aggregation; assay: Platelet Aggregation Assay; assay type: cell-based; conditions: Homo sapiens, Platelet, human platelet-rich plasma, class symbols
For each record, write down the corresponding IC50.

Below: 7 compounds and their reported IC50.
INSERT INTO assay_data (compound, result) VALUES
  ('NCCOc1cccc(C(=O)/C=C/c2ccc(OCC(=O)O)c(-c3ccccc3)c2)c1 [Example 75c]', '51 to 100 µM'),
  ('CCOc1cc(OCCN)cc(C(=O)/C=C/c2ccc(OCC(=O)O)cc2)c1', '10 to 50 µM'),
  ('CNCCOc1cccc(C(=O)/C=C/c2ccc(OCC(=O)O)c(OC)c2)c1', '10 to 50 µM'),
  ('NCCOc1cccc(C(=O)/C=C/c2ccc(OCC(=O)O)c([N+](=O)[O-])c2)c1', '< 10 µM'),
  ('COC(=O)c1cc(/C=C/C(=O)c2cccc(OCCN)c2)ccc1OCC(=O)O', '10 to 50 µM'),
  ('CCOC(=O)c1cc(/C=C/C(=O)c2cccc(OCCN)c2)ccc1OCC(=O)O', '10 to 50 µM'),
  ('COc1cc(/C=C/C(=O)c2cccc(OCCN)c2)ccc1OCC(=O)O', '< 10 µM');

# evaluate next
Q) Which IC50 reading was recorded for the compound NCCOc1cccc(C(=O)/C=C/c2ccc(OCC(=O)O)c(C(=O)OCC(=O)O)c2)c1 ?
A) < 10 µM

* * *

test system: agonist-induced platelet aggregation; experiment: Platelet Aggregation Assay; type: cell-based; settings: human platelet-rich plasma, 100 μM
So I've got a bunch of molecules here, and I need their inhibition at 100 µM values.
Give bare numbers, in %.

INSERT INTO assay_data (smilesrepr, number) VALUES
  ('CN(C)CCOc1cccc(C(=O)/C=C/c2cccc(C(=O)O)c2)c1', 13),
  ('NCCc1cccc(C(=O)/C=C/c2ccc(OCC(=O)O)c([N+](=O)[O-])c2)c1', 21),
  ('COc1ccc(/C=C/C(=O)c2cccc(OCCN)c2)cc1CC(=O)O', 38);

Each of the following entries comes with a recorded value; kindly state inhibition at 100 µM for each.
1. NCc1ccc(C(=O)/C=C/c2ccc(CCC(=O)O)cc2)cc1
2. CCOC(=O)c1cc(/C=C/C(=O)c2ccccc2OCCCN)ccc1OCC(=O)O

A)
1: 19; 2: 18

* * *

Task for the reader: assign each of the following compounds its reported IC50.
test system: agonist-induced platelet aggregation; assay: Platelet Aggregation Assay; type: cell-based; conditions: Homo sapiens, Platelet, human platelet-rich plasma, class symbols
Counter-ions that a name gives are not always drawn.

// known answers, use as guide
INSERT INTO results (compound, measurementtarget, experimentalendpoint, result) VALUES
  ('NCc1cccc(C(=O)/C=C/c2ccc(OCC(=O)O)c(OCC(=O)O)c2)c1', 'agonist-induced platelet aggregation', 'IC50', '51 to 100 µM'),
  ('C=CCOc1ccc(OCCN)cc1C(=O)/C=C/c1ccc(OCC(=O)O)c(C(=O)OCC)c1', 'agonist-induced platelet aggregation', 'IC50', '< 10 µM'),
  ('NCCOc1cccc(C(=O)/C=C/c2ccc(OCC(=O)O)c(OCC(=O)O)c2)c1', 'agonist-induced platelet aggregation', 'IC50', '10 to 50 µM');

// batch mode: one IC50 value per listed entry
1. CCOc1cc(/C=C/C(=O)c2cccc(CCN)c2)ccc1OCC(=O)O [Example 91, trifluoroacetate]
2. COc1cc(/C=C/C(=O)c2cccc(N3CCNCC3)c2)ccc1OCC(=O)O
3. COc1cc(/C=C/C(=O)c2cccc(CNC(=N)N)c2)ccc1OCC(=O)O

A)
1. 51 to 100 µM
2. < 10 µM
3. 10 to 50 µM

Give measured IC50 for every item shown.
1. CCOC(=O)COC(=O)c1cc(/C=C/C(=O)c2cccc(OCCN)c2)ccc1OCC(=O)O
2. COc1cc(OCC(=O)O)ccc1/C=C/C(=O)c1cccc(OCCN)c1
3. NCCOc1cccc(C(=O)/C=C/c2ccc(OCC(=O)O)c(C(=O)OCc3ccccc3)c2)c1
4. C=CCOc1ccc(OCCN)cc1C(=O)/C=C/c1ccc(OCC(=O)O)c(C(=O)OCC(=O)O)c1
5. CCCCOC(=O)c1cc(/C=C/C(=O)c2cccc(OCCN)c2)ccc1OCC(=O)O
6. CCOc1cc(/C=C/C(=O)c2cccc(OCCN)c2)ccc1OCC(=O)O

A)
51 to 100 µM
10 to 50 µM
51 to 100 µM
< 10 µM
10 to 50 µM
< 10 µM
